- study.target: ACE from pig kidney (Sus scrofa)
- Construct: 1 mU ACE from pig kidney (EC 3.4.15.1 (Sigma)); purchased Sigma; host or cells: pig kidney (tissue-derived enzyme)
- measurement.description: biochemical
- Format: biochemical
- particulars: inhibitor 50 μM; replicates A-D
Ends that are not written are not given here.
Answer no (0) if inhibition at 50 µM is under 70%, and yes (1) if it is 70% or more.

substance	cat
AGAALSPLPEVPP [Peptide S543]	no (0)
AALSPLPEVPP [Peptide S494]	yes (1)
EAGAALSPLPEVPP [Peptide S542]	no (0)
LSPLPEVPP [Peptide S546]	yes (1)

* * *

- study.target: ACE from pig kidney (Sus scrofa, UniProt F1RRW5)
- Construct: 1 mU ACE from pig kidney (EC 3.4.15.1 (Sigma)); purchased Sigma; host or cells: pig kidney (tissue-derived enzyme)
- measurement.description: biochemical
- Format: biochemical
- particulars: inhibitor 25 μM; replicates A-D
- Method: These peptides were investigated for their inhibitory effect using an in vitro-ACE-inhibitor-assay with an angiotensin-converting-enzyme derived from pig kidney. Hippuryl-histidyl-leucin was used as a substrate. […] A concrete experimental description is given below. […] The results were used to calculate the % inhibition. The IC50-values were determined graphically from a curve showing the dose-reaction ratio. […]
Ends that are not written are not given here.

substance	units.text	inhibition at 25 µM
PLPEVPP [Peptide S548, PLPEVPP]	%	54.8
GAALSPLPEVPP [Peptide S544]	%	47
AALSPLPEVPP [Peptide S494]	%	73.7
LSPLPEVPP [Peptide S546]	%	87.6
EAGAALSPLPEVPP [Peptide S542]	%	37.8
AGAALSPLPEVPP [Peptide S543]	%	50.2

* * *

- study.target: ACE from pig kidney (Sus scrofa, UniProt F1RRW5)
- Construct: 1 mU ACE from pig kidney (EC 3.4.15.1 (Sigma)); purchased Sigma; host or cells: pig kidney (tissue-derived enzyme)
- Sequence (F1RRW5 34-1309): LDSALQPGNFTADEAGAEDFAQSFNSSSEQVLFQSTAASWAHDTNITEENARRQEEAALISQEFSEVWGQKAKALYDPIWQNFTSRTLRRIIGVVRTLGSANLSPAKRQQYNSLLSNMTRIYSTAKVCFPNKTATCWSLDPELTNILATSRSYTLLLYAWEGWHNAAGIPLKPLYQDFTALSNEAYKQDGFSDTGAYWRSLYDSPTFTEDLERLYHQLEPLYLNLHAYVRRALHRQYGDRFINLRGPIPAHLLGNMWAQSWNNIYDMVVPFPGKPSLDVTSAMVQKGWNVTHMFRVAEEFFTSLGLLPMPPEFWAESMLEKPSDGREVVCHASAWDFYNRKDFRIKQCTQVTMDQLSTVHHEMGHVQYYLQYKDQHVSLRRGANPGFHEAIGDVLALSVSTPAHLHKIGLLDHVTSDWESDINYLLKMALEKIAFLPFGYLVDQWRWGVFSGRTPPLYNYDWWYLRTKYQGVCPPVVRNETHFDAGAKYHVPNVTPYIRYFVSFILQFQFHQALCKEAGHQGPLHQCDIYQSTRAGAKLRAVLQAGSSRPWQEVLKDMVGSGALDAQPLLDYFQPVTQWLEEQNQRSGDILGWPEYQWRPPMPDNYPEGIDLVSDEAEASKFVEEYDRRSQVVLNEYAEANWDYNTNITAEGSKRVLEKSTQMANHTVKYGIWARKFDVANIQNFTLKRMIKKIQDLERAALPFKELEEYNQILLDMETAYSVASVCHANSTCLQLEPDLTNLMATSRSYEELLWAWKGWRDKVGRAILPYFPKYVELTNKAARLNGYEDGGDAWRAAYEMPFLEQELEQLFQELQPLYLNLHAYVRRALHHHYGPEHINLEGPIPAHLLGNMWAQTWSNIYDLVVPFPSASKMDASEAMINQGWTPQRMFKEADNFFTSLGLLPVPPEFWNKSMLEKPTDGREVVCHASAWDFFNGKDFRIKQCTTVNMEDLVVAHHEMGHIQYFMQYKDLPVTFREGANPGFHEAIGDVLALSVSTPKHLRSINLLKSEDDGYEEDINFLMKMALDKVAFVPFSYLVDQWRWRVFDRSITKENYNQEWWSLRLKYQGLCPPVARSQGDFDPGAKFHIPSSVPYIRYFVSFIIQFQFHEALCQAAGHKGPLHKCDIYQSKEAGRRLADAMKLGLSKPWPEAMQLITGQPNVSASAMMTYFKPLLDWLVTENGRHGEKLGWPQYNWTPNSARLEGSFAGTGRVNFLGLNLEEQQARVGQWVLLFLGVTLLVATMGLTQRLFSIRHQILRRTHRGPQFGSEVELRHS
- measurement.description: biochemical
- Assay type: biochemical
- particulars: ACE from pig kidney; determined graphically; read-out: IC50-value (ACE inhibition)
Ends that are not written are not given here.
Quick reference: IC50 of the listed items.

substance	units.text	IC50
PLPEVPP [Peptide S548, PLPEVPP]	µM	21
EAGAALSPLPEVPP [Peptide S542]	µM	38
AGAALSPLPEVPP [Peptide S543]	µM	25
AALSPLPEVPP [Peptide S494]	µM	9
GAALSPLPEVPP [Peptide S544]	µM	29
LSPLPEVPP [Peptide S546]	µM	3.5
